test system: Escherichia coli TOP10; assay: shrunken log2 fold change of peptide-encoding DNA abundance (4.5 h post-induction vs induction); higher = less antimicrobial activity (less host growth inhibition); settings: time post-induction: 4.5 h; library: site-saturation at positions 5, 18, 19, 20
Recorded shrunken log2 fold change split into classes low (below -0.1), moderate (-0.1 to below 0.08), high (0.08 or more)

inputSequence | classification
RRIRQRPPRLPRPRPRPNWIPRP | moderate
RRIRQRPPRLPRPRPRPYRIPRP | low
RRIRWRPPRLPRPRPRPMQVPRP | moderate
RRIRWRPPRLPRPRPRPILGPRP | moderate
RRIRTRPPRLPRPRPRPGDIPRP | low
RRIRFRPPRLPRPRPRPGEIPRP | low
RRIRYRPPRLPRPRPRPAWTPRP | low
RRIRMRPPRLPRPRPRPVHQPRP | low
RRIRYRPPRLPRPRPRPHFLPRP | low
RRIRERPPRLPRPRPRPLCMPRP | low
RRIRLRPPRLPRPRPRPQQAPRP | moderate
RRIRMRPPRLPRPRPRPQADPRP | high
RRIRKRPPRLPRPRPRPHTTPRP | high
RRIRNRPPRLPRPRPRPLRRPRP | high
RRIRSRPPRLPRPRPRPYYFPRP | low
RRIRKRPPRLPRPRPRPEFFPRP | high
RRIRNRPPRLPRPRPRPRTDPRP | high
RRIRRRPPRLPRPRPRPVVEPRP | high
RRIRMRPPRLPRPRPRPPRDPRP | high
RRIRPRPPRLPRPRPRPVDTPRP | low
RRIRWRPPRLPRPRPRPAAWPRP | high
RRIRIRPPRLPRPRPRPQQDPRP | low
RRIRCRPPRLPRPRPRPSQFPRP | low
RRIRSRPPRLPRPRPRPEVTPRP | high
RRIRMRPPRLPRPRPRPANWPRP | high
RRIRLRPPRLPRPRPRPDPTPRP | moderate
RRIRQRPPRLPRPRPRPGRNPRP | moderate
RRIRIRPPRLPRPRPRPLMCPRP | low
RRIRTRPPRLPRPRPRPTYCPRP | low
RRIRVRPPRLPRPRPRPMEAPRP | moderate
RRIRSRPPRLPRPRPRPSKSPRP | low

###

Collected shrunken log2 fold change values appear next to each entry.
system: Escherichia coli TOP10; experiment: shrunken log2 fold change of peptide-encoding DNA abundance (4.5 h post-induction vs induction); higher = less antimicrobial activity (less host growth inhibition); conditions: time post-induction: 4.5 h; library: site-saturation at positions 5, 18, 19, 20;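 note: peptides expressed intracellularly from a pBAD plasmid library in pooled LB shake-flask culture, induced with 0.3% L-arabinose, DNA abundance read by NGS, three biological replicates, DESeq2 with apeglm shrinkage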

inputSequence | shrunken log2 fold change
RRIRHRPPRLPRPRPRPPKLPRP | 0.12
RRIRVRPPRLPRPRPRPAWEPRP | 0.162
RRIRVRPPRLPRPRPRPMFCPRP | -0.0375
RRIRPRPPRLPRPRPRPLIVPRP | -0.406
RRIRMRPPRLPRPRPRPGAKPRP | 1.48
RRIRARPPRLPRPRPRPCPWPRP | -0.0222
RRIRGRPPRLPRPRPRPGTHPRP | 0.508
RRIRLRPPRLPRPRPRPIRMPRP | -0.0243
RRIRDRPPRLPRPRPRPAWGPRP | 0.769
RRIRKRPPRLPRPRPRPVLWPRP | 1.78
RRIRERPPRLPRPRPRPREQPRP | -0.0138
RRIRFRPPRLPRPRPRPRYNPRP | -0.323
RRIRWRPPRLPRPRPRPKHAPRP | 0.222
RRIRPRPPRLPRPRPRPKSPPRP | -0.12
RRIRLRPPRLPRPRPRPKTWPRP | 0.108
RRIRVRPPRLPRPRPRPVGGPRP | 0.306
RRIRQRPPRLPRPRPRPAIFPRP | -0.0662
RRIRRRPPRLPRPRPRPLHEPRP | -0.0162
RRIRGRPPRLPRPRPRPWEHPRP | -0.000921
RRIRRRPPRLPRPRPRPSNEPRP | -0.105
RRIRCRPPRLPRPRPRPTDLPRP | 0.0853
RRIRCRPPRLPRPRPRPVNYPRP | -0.376
RRIRCRPPRLPRPRPRPTFPPRP | -0.0779
RRIRSRPPRLPRPRPRPHSHPRP | -0.282
RRIRLRPPRLPRPRPRPCECPRP | 0.202
RRIRLRPPRLPRPRPRPWMIPRP | -0.0928
RRIRIRPPRLPRPRPRPVWVPRP | 0.107
RRIRIRPPRLPRPRPRPVDLPRP | 0.0939
RRIRGRPPRLPRPRPRPEVCPRP | 0.955
RRIRHRPPRLPRPRPRPGNPPRP | 0.0424
RRIRNRPPRLPRPRPRPGAWPRP | 0.0927
RRIRVRPPRLPRPRPRPPAWPRP | 0.498
RRIRKRPPRLPRPRPRPHHDPRP | -0.121
RRIRYRPPRLPRPRPRPHRLPRP | -0.0157
RRIRRRPPRLPRPRPRPPVSPRP | 0.332
RRIRLRPPRLPRPRPRPNGHPRP | -0.0365
RRIRVRPPRLPRPRPRPPGLPRP | 0.373
RRIRWRPPRLPRPRPRPPPGPRP | 1.08
RRIRHRPPRLPRPRPRPEMYPRP | 0.000706
RRIRVRPPRLPRPRPRPEINPRP | -0.00259
RRIRERPPRLPRPRPRPYFEPRP | -0.696
RRIRVRPPRLPRPRPRPLWWPRP | 0.855
RRIRKRPPRLPRPRPRPGAQPRP | 0.496
RRIRIRPPRLPRPRPRPEPLPRP | 0.0641
RRIRCRPPRLPRPRPRPIMQPRP | -0.193
RRIRQRPPRLPRPRPRPREKPRP | 0.158
RRIRMRPPRLPRPRPRPLLMPRP | 0.205
RRIRYRPPRLPRPRPRPLFAPRP | -0.492
RRIRPRPPRLPRPRPRPLRVPRP | 0.615
RRIRTRPPRLPRPRPRPHQKPRP | -0.127
RRIRVRPPRLPRPRPRPLTNPRP | -0.447
RRIRCRPPRLPRPRPRPNSKPRP | 0.297
RRIRCRPPRLPRPRPRPYEGPRP | -0.103
RRIRKRPPRLPRPRPRPLQTPRP | 0.182
RRIRGRPPRLPRPRPRPWEIPRP | 0.361
RRIRPRPPRLPRPRPRPYECPRP | 0.0143
RRIRWRPPRLPRPRPRPPLMPRP | 0.213
RRIRMRPPRLPRPRPRPYTPPRP | -0.847
RRIRCRPPRLPRPRPRPVMYPRP | -0.199
RRIRLRPPRLPRPRPRPDSRPRP | 0.0292
RRIRRRPPRLPRPRPRPNILPRP | -0.0406
RRIRSRPPRLPRPRPRPCCYPRP | 0.145
RRIRQRPPRLPRPRPRPTVKPRP | -0.096

src = the supplement of paper PMC9112550
